Would you mind telling me the reported concentration at 8 h of each entry?
- assay_overview: In vivo tissue distribution test
- Set-up: species or system ICR mice
- experimental_setup: mouse, kidney, po; ICR mice, p.o. 100 mg/kg, 8 hr; read-out: Kidney concentration
Please respond with the number in ng/g and leave the unit unwritten.

Using the record for CON=C1CN(c2nc3c(cc2F)c(=O)c(C(=O)O)cn3C2CC2)C[C@@]1(C)CN.Cl [Hydrochloride (Comparative Example 3)] , report its concentration at 8 h.
18000

Request: CO/N=C1/CN(c2nc3c(cc2F)c(=O)c(C(=O)O)cn3C2CC2)C[C@@]1(C)CN [L-aspartate (Example 1)]
20200

----------
Give solubility for every item shown.
- assay_overview: Solubility test
- Assay type: physicochemical
- experimental_setup: room temperature, water
Form field: result (number plus unit)

Param item = CON=C1CN(c2nc3c(cc2F)c(=O)c(C(=O)O)cn3C2CC2)C[C@@]1(C)CN.Cl [Hydrochloride (Comparative Example 3)] ; retrieve measured solubility.
93.3 mg/mL

Another compound to check: CON=C1CN(c2nc3c(cc2F)c(=O)c(C(=O)O)cn3C2CC2)C[C@@]1(C)CN.Cc1ccc(S(=O)(=O)O)cc1
5.78 mg/mL

Moving on to the next compound: CON=C1CN(c2nc3c(cc2F)c(=O)c(C(=O)O)cn3C2CC2)C[C@@]1(C)CN.O=P(O)(O)O [Phosphate (Comparative Example 6)]
57.8 mg/mL

Same lookup for CON=C1CN(c2nc3c(cc2F)c(=O)c(C(=O)O)cn3C2CC2)C[C@@]1(C)CN [Free form (Comparative Example 2)] , please.
2.79 mg/mL

Next: CON=C1CN(c2nc3c(cc2F)c(=O)c(C(=O)O)cn3C2CC2)C[C@@]1(C)CN.O=CO [Formate (Comparative Example 5)]
27.5 mg/mL

Same question for CON=C1CN(c2nc3c(cc2F)c(=O)c(C(=O)O)cn3C2CC2)C[C@@]1(C)CN.CS(=O)(=O)O [Methanesulfonate (Comparative Example 4)] please.
99.1 mg/mL

What do we get for CO/N=C1/CN(c2nc3c(cc2F)c(=O)c(C(=O)O)cn3C2CC2)C[C@@]1(C)CN [L-aspartate (Example 1)] ?
190 mg/mL

----------
- assay_overview: In vivo tissue distribution test
- Design: species or system ICR mice
- experimental_setup: mouse, kidney, po; ICR mice, p.o. 100 mg/kg, 0.5 hr; read-out: Kidney concentration
property_measured: concentration at 0.5 h (ng/g)
Provide the reading as a plain figure in ng/g.

Which value of concentration at 0.5 h has been reported for CO/N=C1/CN(c2nc3c(cc2F)c(=O)c(C(=O)O)cn3C2CC2)C[C@@]1(C)CN [L-aspartate (Example 1)] in the records?
79200

How about this molecule: CON=C1CN(c2nc3c(cc2F)c(=O)c(C(=O)O)cn3C2CC2)C[C@@]1(C)CN.Cl [Hydrochloride (Comparative Example 3)]
90800

----------
- assay_overview: In vivo tissue distribution test
- Design: species or system ICR mice
- experimental_setup: mouse, lung, po; ICR mice, p.o. 100 mg/kg, 5 hr; read-out: Lung concentration
Would you kindly list concentration at 5 h for each of these compounds?
Reply numerically in ng/g, unit not repeated.

Name the recorded concentration at 5 h for CON=C1CN(c2nc3c(cc2F)c(=O)c(C(=O)O)cn3C2CC2)C[C@@]1(C)CN.Cl [Hydrochloride (Comparative Example 3)] .
23400

Try the compound CO/N=C1/CN(c2nc3c(cc2F)c(=O)c(C(=O)O)cn3C2CC2)C[C@@]1(C)CN [L-aspartate (Example 1)]
24500

----------
- assay_overview: In vivo tissue distribution test
- Design: species or system ICR mice
- experimental_setup: mouse, kidney, po; ICR mice, p.o. 100 mg/kg, 3 hr; read-out: Kidney concentration
property_measured: concentration at 3 h (ng/g)
Enter your answer as a number in ng/g; do not include the unit.

Please give the measured concentration at 3 h for this compound: CO/N=C1/CN(c2nc3c(cc2F)c(=O)c(C(=O)O)cn3C2CC2)C[C@@]1(C)CN [L-aspartate (Example 1)]
48800

Could you do the same for CON=C1CN(c2nc3c(cc2F)c(=O)c(C(=O)O)cn3C2CC2)C[C@@]1(C)CN.Cl [Hydrochloride (Comparative Example 3)] , please?
43000

----------
- assay_overview: In vivo tissue distribution test
- Parameters: species or system ICR mice
- experimental_setup: mouse, spleen, po; ICR mice, p.o. 100 mg/kg, 2 hr; read-out: Spleen concentration
Kindly state concentration at 2 hr for each of the entries shown.
The reply should be a number in ng/g, with the unit left off.

Give the measured concentration at 2 hr of CON=C1CN(c2nc3c(cc2F)c(=O)c(C(=O)O)cn3C2CC2)C[C@@]1(C)CN.Cl [Hydrochloride (Comparative Example 3)] .
102000

Same thing, different compound: CO/N=C1/CN(c2nc3c(cc2F)c(=O)c(C(=O)O)cn3C2CC2)C[C@@]1(C)CN [L-aspartate (Example 1)]
67300

----------
- assay_overview: In vivo tissue distribution test
- Set-up: species or system ICR mice
- experimental_setup: mouse, liver, po; ICR mice, p.o. 100 mg/kg, 1.5 hr; read-out: Liver concentration
Answer each item with its documented concentration at 1.5 h.
Your answer is read as ng/g, so omit the unit and give the number.

Look at this compound and give its reported concentration at 1.5 h. CO/N=C1/CN(c2nc3c(cc2F)c(=O)c(C(=O)O)cn3C2CC2)C[C@@]1(C)CN [L-aspartate (Example 1)]
118000

And what about the compound CON=C1CN(c2nc3c(cc2F)c(=O)c(C(=O)O)cn3C2CC2)C[C@@]1(C)CN.Cl [Hydrochloride (Comparative Example 3)] ?
113000

----------
- assay_overview: In vivo tissue distribution test
- Parameters: species or system ICR mice
- experimental_setup: mouse, plasma, po; ICR mice, p.o. 100 mg/kg; read-out: AUC0-t Plasma
property_measured: AUC(0-t) (ng·h/mL)
// note: answer is a bare numeric in ng·h/mL

Would you kindly share the measured AUC(0-t) for CO/N=C1/CN(c2nc3c(cc2F)c(=O)c(C(=O)O)cn3C2CC2)C[C@@]1(C)CN [L-aspartate (Example 1)] ?
47400

// query: CON=C1CN(c2nc3c(cc2F)c(=O)c(C(=O)O)cn3C2CC2)C[C@@]1(C)CN.Cl [Hydrochloride (Comparative Example 3)]
53600

----------
- assay_overview: In vivo tissue distribution test
- Parameters: species or system ICR mice
- experimental_setup: mouse, thymus, po; ICR mice, p.o. 100 mg/kg, 3 hr; read-out: Thymus concentration
property_measured: concentration at 3 h (ng/g)
Note: unit ng/g is implicit; provide only the numeric part.

concentration at 3 h lookup needed for CO/N=C1/CN(c2nc3c(cc2F)c(=O)c(C(=O)O)cn3C2CC2)C[C@@]1(C)CN [L-aspartate (Example 1)] , thanks.
39800

Same question for CON=C1CN(c2nc3c(cc2F)c(=O)c(C(=O)O)cn3C2CC2)C[C@@]1(C)CN.Cl [Hydrochloride (Comparative Example 3)] please.
38400

----------
- assay_overview: In vivo pharmacokinetic test
- Parameters: species or system SD rats
- experimental_setup: SD, rat, plasma, iv; rats, i.v. 10 mg/kg
property_measured: Cmax (ng/mL)
Answer in ng/mL, number only, no unit symbol.

So what does the record say about Cmax for CON=C1CN(c2nc3c(cc2F)c(=O)c(C(=O)O)cn3C2CC2)C[C@@]1(C)CN.Cl [Hydrochloride (Comparative Example 3)] ?
4460

Moving on to the next molecule: CO/N=C1/CN(c2nc3c(cc2F)c(=O)c(C(=O)O)cn3C2CC2)C[C@@]1(C)CN [L-aspartate (Example 1)]
4180

----------
- assay_overview: In vivo tissue distribution test
- Parameters: species or system ICR mice
- experimental_setup: mouse, liver, po; ICR mice, p.o. 100 mg/kg, 5 hr; read-out: Liver concentration
property_measured: concentration at 5 h
Field: value (include unit after the number)

Form field: reported concentration at 5 h of CO/N=C1/CN(c2nc3c(cc2F)c(=O)c(C(=O)O)cn3C2CC2)C[C@@]1(C)CN [L-aspartate (Example 1)]
57400 ng/g

And then CON=C1CN(c2nc3c(cc2F)c(=O)c(C(=O)O)cn3C2CC2)C[C@@]1(C)CN.Cl [Hydrochloride (Comparative Example 3)] , what is it?
55700 ng/g

----------
Please respond with reported concentration at 0.5 h for every item in the list.
- assay_overview: In vivo tissue distribution test
- Design: species or system ICR mice
- experimental_setup: mouse, heart, po; ICR mice, p.o. 100 mg/kg, 0.5 hr; read-out: Heart concentration
Answer format: numeric, ng/g implied, no suffix.

Tell me the measured concentration at 0.5 h of CON=C1CN(c2nc3c(cc2F)c(=O)c(C(=O)O)cn3C2CC2)C[C@@]1(C)CN.Cl [Hydrochloride (Comparative Example 3)] , please.
59300

Please do the same for CO/N=C1/CN(c2nc3c(cc2F)c(=O)c(C(=O)O)cn3C2CC2)C[C@@]1(C)CN [L-aspartate (Example 1)] as well.
47200
